Where do the numbers come from? From ChEMBL document CHEMBL3425445.

For each entry below, report its MIC value.
- Test system: Mycobacterium tuberculosis
- assayInfo: Antitubercular activity against Mycobacterium tuberculosis H37Rv ATCC 27294 assessed as inhibition of bacterial growth after 4 weeks by two-fold dilution technique
- Assay type: functional
- settings: H37Rv ATCC 27294, 672 h

// known answers, use as guide
>>> observedvalue("O=C(On1c(-c2ccccc2)nc2ccccc2c1=O)c1ccc(Cl)cc1")
"> 50 µg/mL"
>>> observedvalue("O=C(On1c(-c2ccccc2)nc2ccccc2c1=O)c1ccccc1")
"> 50 µg/mL"

Req: MIC for `Cc1cccc(C(=O)On2c(-c3ccccc3)nc3ccccc3c2=O)c1` ?
Resp: > 50 µg/mL
